System: Ishikawa cells (wildtype FGFR2)
method: SRB cell viability assay, Ishikawa
Type: cell-based
run-conditions: Homo sapiens, read-out: PD173074 IC50, cell viability, SRB assay 72 hours after addition, full growth medium
Procedure: Cells were plated at a density of 4×10^5 cells per well in a 6 well plate. The next day, cells were infected with lentiviral stocks in the presence of 6 μg/ml polybrene (Sigma-Aldrich, St. Louis, Mo.). […] Growth Inhibition Assay Twenty-four hours after infection, cells were trypsinized and plated in 96 well plates in full growth medium at a density of 5,000 cells per well, in triplicate, and proliferation assessed using the Sulforhodamine B (SRB) assay (Sigma-Aldrich, St. Louis, Mo.). […]
assay-metric: pIC50
Answers are plain numbers, as −log10 of the molar value.

Inquiry: I have this molecule here, CCN(CC)CCCCNc1ncc2cc(-c3cc(OC)cc(OC)c3)c(NC(=O)NC(C)(C)C)nc2n1 , and I need its recorded pIC50.
Reply text: 5.53

----------
Test system: MFE296 cells (N550K FGFR2 mutation)
method: SRB cell proliferation/viability assay, MFE296
Assay type: cell-based
run-conditions: Homo sapiens, MFE-296, read-out: PD173074 IC50, cell viability; MFE296, SRB assay 72 hours after addition, full growth medium
assay-metric: IC50 (nM)
Numbers only, in nM.

Inquiry: Quick check: IC50 of CCN(CC)CCCCNc1ncc2cc(-c3cc(OC)cc(OC)c3)c(NC(=O)NC(C)(C)C)nc2n1 ?
Reply text: 284

----------
Tested on: KLE cells (wildtype FGFR2)
method: SRB cell viability assay, KLE
Assay type: cell-based
run-conditions: Homo sapiens, read-out: PD173074 IC50, cell viability, SRB assay 72 hours after addition, full growth medium
pIC50: −log10 of the molar value.
assay-metric: pIC50

Inquiry: I would be grateful if you could share the reported pIC50 for CCN(CC)CCCCNc1ncc2cc(-c3cc(OC)cc(OC)c3)c(NC(=O)NC(C)(C)C)nc2n1 .
Reply text: < 6.00
